target: T1, human PSMA (Prostate Specific Membrane Antigen, Glutamate Carboxypeptidase II) (human, UniProt Q04609 1-750); assay: flow cytometry on LNCaP cells
T1 construct: whole, on cells; the cell line is named under assay; also called FOLH1
T1 sequence (Q04609 whole entry): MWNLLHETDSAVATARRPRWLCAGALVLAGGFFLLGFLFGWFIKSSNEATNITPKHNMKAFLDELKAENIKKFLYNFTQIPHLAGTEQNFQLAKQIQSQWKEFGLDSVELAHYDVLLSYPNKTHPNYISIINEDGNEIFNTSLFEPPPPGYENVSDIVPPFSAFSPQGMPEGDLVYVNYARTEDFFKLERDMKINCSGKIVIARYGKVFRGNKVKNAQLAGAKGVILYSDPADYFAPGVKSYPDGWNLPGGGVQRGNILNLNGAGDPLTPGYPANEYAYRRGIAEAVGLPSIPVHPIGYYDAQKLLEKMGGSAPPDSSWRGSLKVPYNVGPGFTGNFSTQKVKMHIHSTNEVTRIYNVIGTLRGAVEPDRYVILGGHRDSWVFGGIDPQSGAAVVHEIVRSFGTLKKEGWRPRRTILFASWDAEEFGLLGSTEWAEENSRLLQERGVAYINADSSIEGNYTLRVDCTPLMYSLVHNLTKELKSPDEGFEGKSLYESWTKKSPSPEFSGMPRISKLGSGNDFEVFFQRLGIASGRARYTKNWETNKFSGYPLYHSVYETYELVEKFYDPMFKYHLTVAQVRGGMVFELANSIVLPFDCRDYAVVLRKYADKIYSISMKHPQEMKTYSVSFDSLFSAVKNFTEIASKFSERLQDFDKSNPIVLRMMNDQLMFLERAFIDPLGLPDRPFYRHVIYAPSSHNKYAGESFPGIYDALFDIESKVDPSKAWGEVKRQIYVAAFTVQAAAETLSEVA
Listed below: fold over the background MFI signal values for each entry.

BINDER: anti-PSMA heavy-chain antibody clone ID 326029 (antibody, V domains shown, heavy chain-only antibody (UniAb/HCAb)) VH: QVQLVESGGGVVQPGRSLRLSCAASGFSFSRYGMHWVRQAPGKGLEWVAVISYDGSNKYYADSVKGRFTISRDNSKNTLYLQMNSLRAEDTAVYYCAREPRVGYYYETSGYYSLDYRGQGTLVTVSS
VALUE_UNITS: fold over background MFI
fold over the background MFI signal: 109

BINDER: anti-PSMA heavy-chain antibody clone ID 345508 (antibody, V domains shown, heavy chain-only antibody (UniAb/HCAb)) VH: QVQLVESGGGVVQPGRSLRLSCAASGFSFSSYGMHWVRQAPGKGPEWVAVIWYDGSNRYYADSVKGRFTISRDNSKNTLYLQMNSLRAEDTAVYYCAREPRIGYYYESSGYYSLDYRGQGTLVTVSS
VALUE_UNITS: fold over background MFI
fold over the background MFI signal: 55

BINDER: anti-PSMA heavy-chain antibody clone ID 345421 (antibody, V domains shown, heavy chain-only antibody (UniAb/HCAb)) VH: QVQLVESVGGVVQPGRSLRLSCAASGFSFSSYGMHWVRQAPGKGLEGVAVIWYDGSNRYYADSVKGRFTISRDNSKNTLYLQMNSLRAEDTAVYYCAREPRIGYYYESSGYYSLDYRGQGTLVTVSS
VALUE_UNITS: fold over background MFI
fold over the background MFI signal: 22

BINDER: anti-PSMA heavy-chain antibody clone ID 326116 (antibody, V domains shown, heavy chain-only antibody (UniAb/HCAb)) VH: QVQLVESGGGVVQPGRSLRLSCAASGFSFSRYGMHWVRQAPGKGLEGVAVISYDGSNKYYADSVKGRFTISRDYSKNTLYLQMNSLRAEDTAVYYCAREPRIGYYYDSSGYDSLDYRGQGTLVTVSS
VALUE_UNITS: fold over background MFI
fold over the background MFI signal: 38

BINDER: anti-PSMA heavy-chain antibody clone ID 326028 (antibody, V domains shown, heavy chain-only antibody (UniAb/HCAb)) VH: QVQLVESGGGVVQPGRSLRLSCAASGFSFRSYGMHWVRQAPGKGLEWVAVISYDGSNKYYADSVKGRFTISRDYSKNTLYLQMNSLRAEDTAVYYCAREPRIGYYYDSSGYDSLDYRGQGTLVTVSS
VALUE_UNITS: fold over background MFI
fold over the background MFI signal: 117

BINDER: anti-PSMA heavy-chain antibody clone ID 325748 (antibody, V domains shown, heavy chain-only antibody (UniAb/HCAb)) VH: QVQLVESGGGVVQPGRSLRLSCAASGFSFSSYGMHWVRQAPGKGLEGVAVIWYDGSNRYYADSVKGRFTISRDNSKNTLYLQMNSLRAEDTAVYYCAREPRIGYYYESSGYYSLDYRGQGTLVTVSS
VALUE_UNITS: fold over background MFI
fold over the background MFI signal: 193

BINDER: anti-PSMA heavy-chain antibody clone ID 326084 (antibody, V domains shown, heavy chain-only antibody (UniAb/HCAb)) VH: QVQLVESGGGVVQPGRSLRLSCAASGFSFSSYGMHWVRQAPGKGLEGVAVIWYDGSNRYYADSVKGRFTISRDNSKNTLYLQMNSLRAEDTAVYYCAREPRIGYYYDSSGYYSLDYRGQGTLVTVSS
VALUE_UNITS: fold over background MFI
fold over the background MFI signal: 125

BINDER: anti-PSMA heavy-chain antibody clone ID 325932 (antibody, V domains shown, heavy chain-only antibody (UniAb/HCAb)) VH: QVQLVESGGGVVQPGRSLRLSCAASGFSFSSYGMHWVRQAPGKGLEGVAVIWYDGSNRYYADSVKGRFTISRDNSKNTLYLQMNSLRAEDTAVYYCAREPRIGYYYESSGYYSLDYRGQGTLVTVSS
VALUE_UNITS: fold over background MFI
fold over the background MFI signal: 64
